system name: Sulf-2 (Homo sapiens)
Construct: host or cells: 293T cells, transiently transfected
method notes: Inhibition of Sulf-2-catalysed desulfation of 4-MUS to fluorescent MU
Format: biochemical
reported conditions: 1 mM compound; 4-MUS substrate; means of two or more determinations; read-out: Sulf-2% inh @ 1 mM
Procedure: Compounds were assayed for their ability to inhibit the Sulf-2-catalysed desulfation of 4-methylumbelliferyl sulfate (4-MUS) to the fluorescent 4-methylumbelliferone (MU). To determine their sulfatase selectivity, inhibition of aryl sulfatases A (ARSA) and B (ARSB) was also assessed. To date no suitable benchmark inhibitors of these sulfatase have been reported. […]
assay endpoint: inhibition at 1000 µM (%)

Some solved entries appear below for comparison.
CN(C)S(=O)(=O)Oc1cccc(-c2ccccc2)c1	0
O=S(=O)(Nc1ccccc1)OCC(Cl)(Cl)Cl	3

I: Nc1cccc(-c2cccc(OS(N)(=O)=O)c2)c1
II: NS(=O)(=O)Oc1cccc(-c2ccccc2N(S(=O)(=O)OCC(Cl)(Cl)Cl)S(=O)(=O)OCC(Cl)(Cl)Cl)c1
III: NS(=O)(=O)Oc1cccc(Oc2ccccc2)c1
## Input Arrange by inhibition at 1000 µM, high to low. In plain terms: list the labels in the order you were asked to.
## Output III, I, II
(III: 32%, I: 20%, II: 10%)

###

Protein target, amino acids: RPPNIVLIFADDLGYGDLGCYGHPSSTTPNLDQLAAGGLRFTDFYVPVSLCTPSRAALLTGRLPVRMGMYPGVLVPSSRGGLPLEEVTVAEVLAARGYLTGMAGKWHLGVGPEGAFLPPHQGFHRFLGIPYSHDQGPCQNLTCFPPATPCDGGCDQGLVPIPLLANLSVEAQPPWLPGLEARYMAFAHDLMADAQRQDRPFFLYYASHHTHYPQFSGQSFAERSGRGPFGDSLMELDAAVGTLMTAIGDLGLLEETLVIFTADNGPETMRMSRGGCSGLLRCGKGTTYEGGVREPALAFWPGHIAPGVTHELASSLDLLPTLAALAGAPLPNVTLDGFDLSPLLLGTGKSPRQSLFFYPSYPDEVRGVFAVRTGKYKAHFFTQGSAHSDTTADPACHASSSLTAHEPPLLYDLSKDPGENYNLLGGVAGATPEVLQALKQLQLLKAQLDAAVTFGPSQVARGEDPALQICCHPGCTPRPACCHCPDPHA
assay endpoint: IC50 (µM)

NS(=O)(=O)Oc1cccc(Oc2ccc(NS(=O)(=O)OCC(Cl)(Cl)Cl)cc2)c1 [Compound 53]	108
NS(=O)(=O)Oc1cccc(-c2ccc(NS(=O)(=O)OCC(Cl)(Cl)Cl)cc2)c1 [Compound 51]	91

###

system name: aryl sulfatase B (ARSB) (Homo sapiens)
Construct: purchased R & D Systems
Sequence (P15848 37-533, species assumed): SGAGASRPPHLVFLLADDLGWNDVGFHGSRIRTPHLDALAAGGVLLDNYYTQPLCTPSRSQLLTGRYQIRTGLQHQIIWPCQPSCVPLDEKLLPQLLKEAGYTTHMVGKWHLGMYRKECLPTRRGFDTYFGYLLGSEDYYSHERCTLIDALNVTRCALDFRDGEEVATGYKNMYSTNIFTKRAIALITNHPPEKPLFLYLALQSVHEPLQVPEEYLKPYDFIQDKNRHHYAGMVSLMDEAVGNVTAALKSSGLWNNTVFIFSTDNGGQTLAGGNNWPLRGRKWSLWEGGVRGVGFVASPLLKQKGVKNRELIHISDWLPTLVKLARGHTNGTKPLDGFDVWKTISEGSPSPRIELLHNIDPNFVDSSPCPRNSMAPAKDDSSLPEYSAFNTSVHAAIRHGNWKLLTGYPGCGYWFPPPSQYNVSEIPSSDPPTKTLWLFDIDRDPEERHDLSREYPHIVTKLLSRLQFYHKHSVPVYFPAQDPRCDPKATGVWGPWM
method notes: ARSB inhibition assay with 4-MUS substrate
Assay type: biochemical
reported conditions: 1 mM compound; 4-MUS substrate; means of two or more determinations; read-out: ARSB% inh @ 1 mM
assay endpoint: inhibition at 1000 µM (%)

Below: 3 molecules and their reported inhibition at 1000 µM.
NS(=O)(=O)Oc1cccc(-c2cccc(C(=O)O)c2)c1	0
COC(=O)c1ccccc1-c1cccc(OS(N)(=O)=O)c1	0
NS(=O)(=O)Oc1cccc(Oc2ccccc2C(=O)O)c1	0

1: NS(=O)(=O)Oc1cccc(-c2ccccc2)c1
2: NS(=O)(=O)Oc1cccc(-c2ccc(NS(=O)(=O)O)cc2)c1
3: NS(=O)(=O)Oc1cccc(Oc2ccccc2NS(=O)(=O)O)c1
## Input Arrange these molecules by their inhibition at 1000 µM, starting with the largest number. Please list the labels according to the requested order.
## Output 3, 1, 2
(3: 93%, 1: 65%, 2: 0%)

I: Nc1cccc(Oc2cccc(OS(N)(=O)=O)c2)c1
II: NS(=O)(=O)Oc1cccc(Oc2cccc(NS(=O)(=O)OCC(Cl)(Cl)Cl)c2)c1
## Input Compare I and II by numeric inhibition at 1000 µM and name the larger one. Use the label to indicate which entry you chose.
## Output II
(II: 96%, I: 0%)

a: NS(=O)(=O)Oc1cccc(Oc2ccc(C(=O)O)cc2)c1
b: O=S(=O)(Nc1cccc(Oc2ccccc2)c1)OCC(Cl)(Cl)Cl
## Input Param metric = inhibition at 1000 µM; output whichever of a , b has the minimum value. // return label of chosen record
## Output a
(a: 0%, b: 99%)

###

system name: Sulf-2 (Homo sapiens)
assay endpoint: IC50 (µM)

P: O=S(=O)(Nc1cccc(-c2ccccc2)c1)OCC(Cl)(Cl)Cl
Q: NS(=O)(=O)Oc1cccc(-c2cccc(NS(=O)(=O)OCC(Cl)(Cl)Cl)c2)c1
## Input Could you check which of P and Q has a smaller value for IC50? When you have decided, please share the label of that item.
## Output Q

###

Record set of IC50 for target or system aryl sulfatase B (ARSB) (Homo sapiens).
assay endpoint: IC50 (µM)

O=S(=O)(Nc1cccc(Oc2ccccc2)c1)OCC(Cl)(Cl)Cl	34

a: O=S(=O)(Nc1cccc(-c2ccccc2)c1)OCC(Cl)(Cl)Cl
b: NS(=O)(=O)Oc1cccc(-c2cccc(NS(=O)(=O)OCC(Cl)(Cl)Cl)c2)c1
## Input Hi team, can someone confirm which has the larger IC50: a or b ? Thanks. Let me know the label of the one you choose.
## Output b
(b: 130 µM, a: 30 µM)

###

system name: Sulf-2 (Homo sapiens, UniProt Q8IWU5)
Construct: host or cells: 293T cells, transiently transfected
Sequence (Q8IWU5 25-870): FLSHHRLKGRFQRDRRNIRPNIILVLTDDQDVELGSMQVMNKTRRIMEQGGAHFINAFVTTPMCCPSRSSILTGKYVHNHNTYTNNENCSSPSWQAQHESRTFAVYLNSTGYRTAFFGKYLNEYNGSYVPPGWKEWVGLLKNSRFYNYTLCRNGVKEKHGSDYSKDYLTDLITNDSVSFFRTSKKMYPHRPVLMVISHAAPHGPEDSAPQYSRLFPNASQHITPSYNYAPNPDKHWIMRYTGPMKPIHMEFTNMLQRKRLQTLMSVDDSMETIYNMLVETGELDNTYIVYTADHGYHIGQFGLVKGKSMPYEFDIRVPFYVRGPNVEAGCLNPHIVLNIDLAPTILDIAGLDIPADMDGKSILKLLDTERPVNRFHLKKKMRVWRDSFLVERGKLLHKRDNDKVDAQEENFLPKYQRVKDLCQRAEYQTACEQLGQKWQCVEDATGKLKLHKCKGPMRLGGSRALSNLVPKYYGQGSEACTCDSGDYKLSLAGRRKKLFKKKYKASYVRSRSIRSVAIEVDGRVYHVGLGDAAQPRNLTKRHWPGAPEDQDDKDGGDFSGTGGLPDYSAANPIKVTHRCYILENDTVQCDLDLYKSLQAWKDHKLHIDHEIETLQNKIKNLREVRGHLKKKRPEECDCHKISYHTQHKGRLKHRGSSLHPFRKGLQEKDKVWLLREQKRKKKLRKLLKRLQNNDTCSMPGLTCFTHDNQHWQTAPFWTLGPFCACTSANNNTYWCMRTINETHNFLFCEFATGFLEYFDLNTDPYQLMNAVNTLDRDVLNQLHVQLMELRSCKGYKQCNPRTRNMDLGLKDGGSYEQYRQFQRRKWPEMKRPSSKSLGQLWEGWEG
method notes: Inhibition of Sulf-2-catalysed desulfation of 4-MUS to fluorescent MU
Format: biochemical
reported conditions: 1 mM compound; 4-MUS substrate; means of two or more determinations; read-out: Sulf-2% inh @ 1 mM
assay endpoint: inhibition at 1000 µM (%)

NS(=O)(=O)Oc1cccc(Oc2cccc(C(=O)O)c2)c1	30
COC(=O)c1ccccc1-c1cccc(OS(N)(=O)=O)c1	20
Nc1cccc(Oc2cccc(OS(N)(=O)=O)c2)c1	31
NS(=O)(=O)Oc1cccc(-c2ccccc2)c1	38
CC(=O)Nc1ccc(Oc2cccc(OS(N)(=O)=O)c2)cc1	14

I: CC(=O)Nc1cccc(-c2cccc(OS(N)(=O)=O)c2)c1
II: O=S(=O)(Nc1cccc(-c2ccccc2)c1)OCC(F)(F)F
## Input Between these two entries, I and II , state which has the higher inhibition at 1000 µM. Mark your selection by writing its label.
## Output I
(I: 8%, II: 5%)

###

system name: aryl sulfatase A (ARSA) (Homo sapiens)
Construct: purchased R & D Systems
method notes: ARSA inhibition assay with 4-MUS substrate
Format: biochemical
reported conditions: 1 mM compound; 4-MUS substrate; means of two or more determinations; read-out: ARSA% inh @ 1 mM
Method: Compounds were assayed for their ability to inhibit the Sulf-2-catalysed desulfation of 4-methylumbelliferyl sulfate (4-MUS) to the fluorescent 4-methylumbelliferone (MU). To determine their sulfatase selectivity, inhibition of aryl sulfatases A (ARSA) and B (ARSB) was also assessed. To date no suitable benchmark inhibitors of these sulfatase have been reported. […]
assay endpoint: inhibition at 1000 µM (%)

Known inhibition at 1000 µM results, listed for orientation:
CC(=O)Nc1ccccc1Oc1cccc(OS(N)(=O)=O)c1	29
NS(=O)(=O)Oc1cccc(Oc2ccc(NS(=O)(=O)O)cc2)c1	34

A: NS(=O)(=O)Oc1cccc(-c2ccccc2)c1
B: NS(=O)(=O)Oc1cccc(-c2ccc(NS(=O)(=O)OCC(Cl)(Cl)Cl)cc2)c1
C: NS(=O)(=O)Oc1cccc(-c2cccc(C(=O)O)c2)c1
D: CC(=O)Nc1ccccc1-c1cccc(OS(N)(=O)=O)c1
## Input Given 4 molecules, produce a descending ranking by inhibition at 1000 µM. # format: label list in the order the request specifies
## Output B, C, D, A

P: Nc1ccc(Oc2cccc(OS(N)(=O)=O)c2)cc1
Q: CC(=O)Nc1ccc(Oc2cccc(OS(N)(=O)=O)c2)cc1
R: Nc1ccccc1-c1cccc(OS(N)(=O)=O)c1
## Input Order field: inhibition at 1000 µM | Direction: descending (largest first) List the labels according to the requested ordering.
## Output P, Q, R

A: NS(=O)(=O)Oc1cccc(-c2cccc(NS(=O)(=O)OCC(Cl)(Cl)Cl)c2)c1
B: CC(=O)Nc1ccc(-c2cccc(OS(N)(=O)=O)c2)cc1
C: CC(=O)Nc1cccc(-c2cccc(OS(N)(=O)=O)c2)c1
D: NS(=O)(=O)Oc1cccc(Oc2ccc(C(=O)O)cc2)c1
## Input Hey, quick one: sort these by inhibition at 1000 µM, largest value first please. List the labels according to the requested ordering.
## Output A, C, D, B

###

system name: Sulf-2 (Homo sapiens)
Construct: host or cells: 293T cells, transiently transfected
method notes: Inhibition of Sulf-2-catalysed desulfation of 4-MUS to fluorescent MU
Type: biochemical
reported conditions: 1 mM compound; 4-MUS substrate; means of two or more determinations; read-out: Sulf-2% inh @ 1 mM
assay endpoint: inhibition at 1000 µM (%)

Worked cases, inhibition at 1000 µM given:
CC(=O)Nc1ccccc1-c1cccc(OS(N)(=O)=O)c1	4
NS(=O)(=O)Oc1cccc(-c2ccccc2C(=O)O)c1	31
NS(=O)(=O)Oc1cccc(Oc2cccc(NS(=O)(=O)OCC(Cl)(Cl)Cl)c2)c1	100
O=S(=O)(Nc1cccc(Oc2ccccc2)c1)OCC(Cl)(Cl)Cl	99
O=S(=O)(OCC(Cl)(Cl)Cl)Oc1cccc(-c2ccccc2)c1	1
NS(=O)(=O)Oc1cccc(-c2ccc(NS(=O)(=O)O)cc2)c1	4

A: CC(=O)Nc1ccc(-c2cccc(OS(N)(=O)=O)c2)cc1
B: NS(=O)(=O)Oc1cccc(-c2ccc(C(=O)O)cc2)c1
C: NS(=O)(=O)Oc1cccc(-c2cccc(C(=O)O)c2)c1
## Input Reorder: inhibition at 1000 µM, max to min. # the answer lists labels in the order requested
## Output B, C, A
(B: 22%, C: 12%, A: 3%)
